- System: OVCAR-4
- assayExplanation: NCI tumour cell line growth inhibition, 48 h
The source made the active and inactive calls. Cut-off read from the data, not from the text of the source: active = GI50 up to about 1.1 µM and inactive = higher.
Pick one: active, inactive

Task item: How was CC1=NN(C(=O)c2ccc(Cl)cc2)C(=O)/C1=C/c1c(O)cc(O)c2ccccc12 classified in this test?
Reply: inactive

Task item: COc1ccccc1-c1cc(O)c2c(C)ccnc2n1 , same question.
Reply: inactive

Task item: Query CC(=O)OCC1=C(C)C[C@H]([C@@H](COC(C)=O)C2CCC3C4C[C@H]5O[C@]56CC=CC(=O)[C@]6(C)C4CC[C@@]32C)OC1=O (some centres not stated) next
Reply: active

Task item: Queued: Cc1cc(C)nc(NS(=O)(=O)c2ccc(NC(=O)c3ccc4nc5ccccc5c(Nc5ccc(S(=O)(=O)Nc6nc(C)cc(C)n6)cc5)c4c3)cc2)n1
Reply: inactive

Task item: Same read-out for O=C1N[C@@H](O)[C@@H]2ON=C(c3ccccc3)[C@H]12 ?
Reply: inactive

Task item: Check Nc1nc2ncn(CC(O)CO)c2c(=S)[nH]1 (configuration not stated) too.
Reply: inactive

Task item: Same again, this time with O=C(O)/C(Cc1c[nH]nn1)=N\O
Reply: inactive

Task item: For OCC1OC(c2n[nH]c3c(O)ncnc23)C(O)C1O (configuration not stated) then?
Reply: inactive

Task item: Also, CCOc1cc(C2CC(c3ccc(NS(=O)(=O)c4cc([N+](=O)[O-])ccc4C)cc3)=NN2C(=O)c2ccccc2)ccc1O (configuration not stated) please.
Reply: inactive

Task item: What do you have for COC1(OC)C(/C(N)=C\O)=NC(C)(C)N1O ?
Reply: inactive

Task item: Also CN(C)c1ccc(/C=N/c2ccc(-c3nc4ccccc4o3)cc2)cc1 , if possible.
Reply: inactive

Task item: For C=C(C)[C@@]1(OC(=O)c2cc([N+](=O)[O-])cc([N+](=O)[O-])c2)C[C@@H]2CCCC[C@@H]21 then?
Reply: inactive

Task item: Moving on to the next compound: CC(=O)N(CCc1ccccc1)C(C#N)c1ccc(OCCCCCCCCCCOc2ccc(C(C#N)N(CCc3ccccc3)C(C)=O)cc2)cc1 (configuration not stated)
Reply: inactive

Task item: Repeat for the following compound: CC(=O)Nc1ccc(S(=O)(=O)/N=C2\C=CC(=O)c3ccccc32)cc1
Reply: inactive

Task item: Same for [N-]=[N+]=C1C(=O)c2ccccc2-c2ccccc21
Reply: inactive

Task item: Try this compound too: CC(=O)Oc1ccc2c(c1)CC[C@@H]1C2[C@@H](O[N+](=O)[O-])C[C@@]2(C)C1CC[C@@H]2O[N+](=O)[O-] (some centres not stated)
Reply: inactive

Task item: Param item: NC(=O)N1N=C2c3ccccc3OC[C@H]2[C@@H]1c1ccccc1
Reply: inactive

Task item: Would you kindly repeat that for COC(CN(C)C(=O)C(C)NC(=O)c1ccccc1)OC (configuration not stated) ?
Reply: inactive

Task item: Input Clc1ccc(C2=NCON=C2c2ccc(Cl)cc2)cc1
Reply: inactive

Task item: # repeat for O=C1OCc2cccc3c2-c2c1cccc2C(=O)OC3
Reply: inactive

Task item: // repeat for Cn1c(=O)c(C(=O)NC(=O)NCCCCCOC(=O)CCCCCCCCCCC(=O)OCCCCCNC(=O)NC(=O)c2cn(Cc3ccccc3)c(=O)n(C)c2=O)cn(Cc2ccccc2)c1=O and report
Reply: inactive

Task item: Now this one: COC(NC(=O)Nc1ccccc1C)(C(F)(F)F)C(F)(F)F
Reply: inactive
